EC50 ratio listing for selected compounds.
# assayed.system: human P2X7 (Homo sapiens, UniProt Q99572)
# Construct: expressed in transfected cells
# test.description: YO-PRO-1 dye uptake assay in HEK-hP2X7 cells
# Format: cell-based
# condition.set: average EC50 for ATP + vehicle of each set of experiments used; 10 µM glycoside
# Experimental: ATP-induced dye uptake experiments were performed as described previously ([Bidula et al., 2019b]). […] A Flexstation 3 plate reader (Molecular Devices, Sunnyvale, CA) was used to record YO-PRO-1 fluorescence in HEK-hP2X7 for 300 seconds after the addition of ATP (at 10× final concentration) with/without ginsenoside compounds or vehicle (DMSO). […] YO-PRO-1 fluorescence was measured at 520 nm after excitation at 490 nm (auto cutoff at 495 nm), and the sample interval was 3.5 seconds. […]
Could you keep your reply to the number by itself?

Study these solved cases before continuing.
>>> result_number("CC(C)=CCC[C@@](C)(O)[C@H]1CC[C@]2(C)[C@@H]1[C@H](O)C[C@@H]1[C@@]3(C)CC[C@H](O[C@@H]4O[C@H](CO)[C@@H](O)[C@H](O)[C@H]4O)C(C)(C)[C@@H]3CC[C@]12C [Ginsenoside-20(R)-Rh2, 20(R)-ginsenoside-Rh2]")
0.8
>>> result_number("CC(C)=CCC[C@](C)(O[C@@H]1O[C@H](CO)[C@@H](O)[C@H](O)[C@H]1O)[C@H]1CC[C@]2(C)[C@@H]1[C@H](O)C[C@@H]1[C@@]3(C)CC[C@H](O[C@@H]4O[C@H](CO)[C@@H](O)[C@H](O)[C@H]4O)C(C)(C)[C@@H]3CC[C@]12C [Ginsenoside-F2, ginsenoside-F2]")
5.4
>>> result_number("CC(C)=CCC[C@](C)(O)[C@H]1CC[C@]2(C)[C@@H]1[C@H](O)C[C@@H]1[C@@]3(C)CC[C@H](O[C@@H]4O[C@H](CO)[C@@H](O)[C@H](O)[C@H]4O)C(C)(C)[C@@H]3CC[C@]12C [Ginsenoside-20(S)-Rh2, 20(S)-ginsenoside-Rh2]")
1.8

Now look at this entry.
Tell me reported EC50 ratio for CC(C)=CCC[C@](C)(O)[C@H]1CC[C@]2(C)[C@@H]1[C@H](O)C[C@@H]1[C@@]3(C)CC[C@H](O[C@@H]4O[C@H](CO)[C@@H](O)[C@H](O)[C@H]4O[C@@H]4O[C@H](CO)[C@@H](O)[C@H](O)[C@H]4O)C(C)(C)[C@@H]3CC[C@]12C [Ginsenoside-20(S)-Rg3, 20(S)-ginsenoside-Rg3] , tested with human P2X7 (Homo sapiens, UniProt Q99572).
1.8

###

# assayed.system: human P2X7 (Homo sapiens)
# Construct: expressed in transfected cells
# Sequence (Q99572 1-595): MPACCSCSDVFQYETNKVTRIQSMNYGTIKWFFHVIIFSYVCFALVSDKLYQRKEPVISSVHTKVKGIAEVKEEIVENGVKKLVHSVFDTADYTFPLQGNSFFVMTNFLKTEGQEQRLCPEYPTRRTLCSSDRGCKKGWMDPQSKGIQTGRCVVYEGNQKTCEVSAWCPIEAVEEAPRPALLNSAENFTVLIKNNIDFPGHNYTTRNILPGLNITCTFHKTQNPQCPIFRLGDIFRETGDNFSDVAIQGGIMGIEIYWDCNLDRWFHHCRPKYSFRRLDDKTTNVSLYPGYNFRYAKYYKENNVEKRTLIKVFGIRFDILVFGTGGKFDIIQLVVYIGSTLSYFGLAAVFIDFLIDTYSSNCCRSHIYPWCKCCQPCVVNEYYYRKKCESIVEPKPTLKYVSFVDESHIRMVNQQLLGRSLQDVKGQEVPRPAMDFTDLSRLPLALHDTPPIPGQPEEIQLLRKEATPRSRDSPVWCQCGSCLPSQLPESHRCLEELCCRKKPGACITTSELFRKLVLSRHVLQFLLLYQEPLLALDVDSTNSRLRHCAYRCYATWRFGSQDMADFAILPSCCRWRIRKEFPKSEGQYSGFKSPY
# test.description: YO-PRO-1 dye uptake assay in HEK-hP2X7 cells
# Format: cell-based
# condition.set: 200 µM ATP, 10 µM glycoside; compared with ATP + DMSO
Counter-ions that a name gives are not always drawn.
property.measured: ATP-induced YO-PRO-1 response in fixed-concentration screen

Study these solved cases before continuing.
>>> result("C[C@H]1O[C@@H](O[C@H]2CC[C@@]3(C)[C@@H](CC[C@]4(C)[C@@H]3C=C[C@]35OC[C@@]6(CCC(C)(C)C[C@H]63)[C@@H](O)C[C@]54C)[C@]2(C)CO)[C@H](O)[C@@H](O[C@@H]2O[C@H](CO)[C@@H](O)[C@H](O)[C@H]2O)[C@H]1O")
"large increase"
>>> result("C[C@H]1CC[C@@H]2[C@@H](C)[C@H]3[C@H](C[C@H]4[C@@H]5CC=C6C[C@@H](O[C@@H]7O[C@H](CO)[C@H](O)[C@H](O[C@@H]8O[C@H](CO)[C@@H](O)[C@H](O)[C@H]8O)[C@H]7O[C@@H]7O[C@@H](C)[C@H](O)[C@@H](O)[C@H]7O)CC[C@]6(C)[C@H]5CC[C@]34C)N2C1 [Solanine, solanine hydrochloride]")
"large increase"
>>> result("C[C@H](CC[C@@H](O[C@@H]1O[C@H](CO[C@@H]2O[C@H](CO)[C@@H](O)[C@H](O)[C@H]2O)[C@@H](O)[C@H](O)[C@H]1O[C@@H]1O[C@H](CO)[C@@H](O)[C@H](O)[C@H]1O)C(C)(C)O)[C@H]1CC[C@@]2(C)[C@@H]3CC=C4[C@@H](CC[C@H](O[C@@H]5O[C@H](CO[C@@H]6O[C@H](CO)[C@@H](O)[C@H](O)[C@H]6O)[C@@H](O)[C@H](O)[C@H]5O)C4(C)C)[C@]3(C)[C@H](O)C[C@]12C [Mogroside V, mogroside V]")
"no modulation of P2X7"
>>> result("CC1(C)[C@@H](O[C@H]2O[C@H](C(=O)O)[C@@H](O)[C@H](O)[C@H]2O[C@@H]2O[C@H](C(=O)O)[C@@H](O)[C@H](O)[C@H]2O)CC[C@]2(C)[C@H]3C(=O)C=C4[C@@H]5C[C@@](C)(C(=O)O)CC[C@]5(C)CC[C@@]4(C)[C@]3(C)CC[C@@H]12")
"no modulation of P2X7"
>>> result("C=C1C[C@@]23CC[C@H]4[C@@](C)(CCC[C@@]4(C)C(=O)O[C@@H]4O[C@H](CO)[C@@H](O)[C@H](O)[C@H]4O)[C@@H]2CC[C@]1(O[C@@H]1O[C@H](CO)[C@@H](O)[C@H](O)[C@H]1O[C@@H]1O[C@H](CO)[C@@H](O)[C@H](O)[C@H]1O)C3 [Stevioside, stevioside]")
"no modulation of P2X7"

Tell me reported ATP-induced YO-PRO-1 response in fixed-concentration screen for COC(=O)[C@@]1(C)CC[C@]2(C(=O)O)CC[C@]3(C)C(=CC[C@@H]4[C@@]5(C)C[C@H](O)[C@H](O[C@@H]6OC[C@@H](O[C@@H]7O[C@H](CO)[C@@H](O)[C@H](O)[C@H]7O)[C@H](O)[C@H]6O)[C@@](C)(CO)[C@@H]5CC[C@]43C)[C@@H]2C1 [Esculentoside A, esculentoside A] , tested with human P2X7 (Homo sapiens).
no modulation of P2X7

###

# assayed.system: human P2X7 (Homo sapiens, UniProt Q99572)
# Construct: expressed in transfected cells
# Sequence (Q99572 1-595): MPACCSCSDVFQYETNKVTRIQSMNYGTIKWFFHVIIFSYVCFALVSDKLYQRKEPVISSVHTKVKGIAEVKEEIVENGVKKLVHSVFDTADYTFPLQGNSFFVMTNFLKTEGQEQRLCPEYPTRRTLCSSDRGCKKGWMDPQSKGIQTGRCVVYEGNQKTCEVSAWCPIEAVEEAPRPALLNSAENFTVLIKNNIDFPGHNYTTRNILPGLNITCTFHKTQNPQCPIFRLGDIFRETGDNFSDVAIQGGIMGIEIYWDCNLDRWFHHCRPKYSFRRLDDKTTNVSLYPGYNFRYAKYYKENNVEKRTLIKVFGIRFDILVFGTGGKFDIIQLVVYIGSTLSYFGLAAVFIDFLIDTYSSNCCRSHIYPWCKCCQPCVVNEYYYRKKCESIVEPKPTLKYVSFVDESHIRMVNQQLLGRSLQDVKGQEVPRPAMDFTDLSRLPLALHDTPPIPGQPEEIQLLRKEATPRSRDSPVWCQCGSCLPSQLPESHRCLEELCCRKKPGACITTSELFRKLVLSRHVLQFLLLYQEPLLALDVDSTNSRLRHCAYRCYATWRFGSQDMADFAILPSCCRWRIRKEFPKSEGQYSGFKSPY
# test.description: YO-PRO-1 dye uptake assay in HEK-hP2X7 cells
# Assay type: cell-based
# condition.set: 10 µM glycoside; HEK-hP2X7; result in words
property.measured: PAM effect on ATP dose-response curve

>>> result("COC(=O)[C@@]1(C)CC[C@]2(C(=O)O)CC[C@]3(C)C(=CC[C@@H]4[C@@]5(C)C[C@H](O)[C@H](O[C@@H]6OC[C@@H](O[C@@H]7O[C@H](CO)[C@@H](O)[C@H](O)[C@H]7O)[C@H](O)[C@H]6O)[C@@](C)(CO)[C@@H]5CC[C@]43C)[C@@H]2C1 [Esculentoside A, esculentoside A]")
"inactive"
>>> result("CC(C)=CCCC(C)(OC1OC(CO)C(O)C(O)C1O)C1CCC2(C)C1C(O)CC1C3(C)CCC(O)C(C)(C)C3CCC12C (stereo not shown) [Ginsenoside-CK]")
"mixed type I/II effects"
>>> result("CC(C)=CCC[C@](C)(O[C@@H]1O[C@H](CO)[C@@H](O)[C@H](O)[C@H]1O)[C@H]1CC[C@]2(C)[C@@H]1[C@H](O)C[C@@H]1[C@@]3(C)CC[C@H](O[C@@H]4O[C@H](CO)[C@@H](O)[C@H](O)[C@H]4O[C@@H]4O[C@H](CO)[C@@H](O)[C@H](O)[C@H]4O)C(C)(C)[C@@H]3CC[C@]12C [Ginsenoside-Rd, ginsenoside-Rd]")
"mixed type I/II effects"
>>> result("CC(C)=CCC[C@@](C)(O)[C@H]1CC[C@]2(C)[C@@H]1[C@H](O)C[C@@H]1[C@@]3(C)CC[C@H](O[C@@H]4O[C@H](CO)[C@@H](O)[C@H](O)[C@H]4O[C@@H]4O[C@H](CO)[C@@H](O)[C@H](O)[C@H]4O)C(C)(C)[C@@H]3CC[C@]12C [Ginsenoside-20(R)-Rg3, 20(R)-ginsenoside-Rg3]")
"inactive"
